System: MDA-MB-435
Assay: Growth inhibition of human MDA-MB-435 cells assessed as cell growth at 10 uM incubated for 48 hrs by sulforhodamine B assay relative to control
Type: functional
Conditions: MDA-MB-435, 48 h, read-out: Activity
Measured Parameter: growth at 10 µM (%)
The figure you give is taken to be in %; do not add the unit.

Short answer please: growth at 10 µM, MDA-MB-435, entry COc1cc2cc(Oc3ccc(NC(=O)Nc4cccc(C(F)(F)F)c4)cc3)c(C)nc2cc1OC
7.23

Same for COc1cc2cc(Oc3ccc(NC(=O)Nc4ccccc4)cc3)c(C)nc2cc1OC
89.4

Same for COc1cc2cc(Oc3ccc(NC(=O)Nc4cc(C(F)(F)F)cc(C(F)(F)F)c4)cc3)c(C)nc2cc1OC
-2.55

Same for Cc1nc2cc(O)c(O)cc2cc1Oc1ccc(NC(=O)Nc2ccc(Cl)c(Cl)c2)cc1
54.2

Same for COc1cc2cc(Sc3ccc(NC(=O)Nc4ccc(Cl)c(Cl)c4)cc3)c(C)nc2cc1OC
76.7
